target: PIM1 (Homo sapiens); experiment: KinaseGlo Pim1 ATP depletion assay; assay type: biochemical
Sequence (P11309 whole entry): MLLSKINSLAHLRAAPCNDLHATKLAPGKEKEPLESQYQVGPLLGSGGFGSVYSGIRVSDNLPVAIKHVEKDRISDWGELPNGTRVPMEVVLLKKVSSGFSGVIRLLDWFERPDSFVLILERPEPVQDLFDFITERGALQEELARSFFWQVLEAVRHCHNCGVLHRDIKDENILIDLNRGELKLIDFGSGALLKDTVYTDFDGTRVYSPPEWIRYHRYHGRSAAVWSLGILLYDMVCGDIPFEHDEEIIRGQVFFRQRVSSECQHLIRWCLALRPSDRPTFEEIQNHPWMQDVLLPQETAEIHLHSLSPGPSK
pIC50: −log10 of the molar value.
Assign classes using reported pIC50 values and the ranges A (below 8), B (8 to below 9), C (9 or more), please.

| smiles-text | class-name |
| --- | --- |
| N[C@@H]1C[C@H](c2ccncc2NC(=O)c2ccc(F)c(-c3c(F)cccc3F)n2)O[C@@H]2CCC[C@]12O | C |
| CC[C@H]1O[C@@H](c2ccncc2NC(=O)c2c[nH]cc(-c3ccccc3)c2=O)C[C@@H](O)[C@@H]1O | A |
| O=C1CC[C@H]2O[C@@H](c3ccncc3NC(=O)c3ccc(F)c(-c4c(F)cccc4F)n3)C[C@@H](O)[C@@H]2N1 | B |
| Nc1cnc(-c2c(F)cccc2F)nc1C(=O)Nc1cnccc1[C@@H]1C[C@H](O)[C@]2(O)CCC[C@@H]2O1 | A |
| C=C1[C@H](O)C[C@H](c2ccncc2NC(=O)c2ccc(F)c(-c3c(F)cccc3F)n2)OC12CC2 | B |
| O=C(Nc1cnccc1C1=C[C@@H](O)[C@H](O)[C@@H](CCl)O1)c1ccnc(-c2c(F)cccc2F)n1 | B |

----------
biological target: PDGFRaV561D kinase (Homo sapiens, UniProt P16234, V561D); assay: PDGFRaV561D kinase inhibition assay (LanthaScreen TR-FRET); details: read-out: PDGFRa IC50
Sequence (P16234 24-1089 V561D): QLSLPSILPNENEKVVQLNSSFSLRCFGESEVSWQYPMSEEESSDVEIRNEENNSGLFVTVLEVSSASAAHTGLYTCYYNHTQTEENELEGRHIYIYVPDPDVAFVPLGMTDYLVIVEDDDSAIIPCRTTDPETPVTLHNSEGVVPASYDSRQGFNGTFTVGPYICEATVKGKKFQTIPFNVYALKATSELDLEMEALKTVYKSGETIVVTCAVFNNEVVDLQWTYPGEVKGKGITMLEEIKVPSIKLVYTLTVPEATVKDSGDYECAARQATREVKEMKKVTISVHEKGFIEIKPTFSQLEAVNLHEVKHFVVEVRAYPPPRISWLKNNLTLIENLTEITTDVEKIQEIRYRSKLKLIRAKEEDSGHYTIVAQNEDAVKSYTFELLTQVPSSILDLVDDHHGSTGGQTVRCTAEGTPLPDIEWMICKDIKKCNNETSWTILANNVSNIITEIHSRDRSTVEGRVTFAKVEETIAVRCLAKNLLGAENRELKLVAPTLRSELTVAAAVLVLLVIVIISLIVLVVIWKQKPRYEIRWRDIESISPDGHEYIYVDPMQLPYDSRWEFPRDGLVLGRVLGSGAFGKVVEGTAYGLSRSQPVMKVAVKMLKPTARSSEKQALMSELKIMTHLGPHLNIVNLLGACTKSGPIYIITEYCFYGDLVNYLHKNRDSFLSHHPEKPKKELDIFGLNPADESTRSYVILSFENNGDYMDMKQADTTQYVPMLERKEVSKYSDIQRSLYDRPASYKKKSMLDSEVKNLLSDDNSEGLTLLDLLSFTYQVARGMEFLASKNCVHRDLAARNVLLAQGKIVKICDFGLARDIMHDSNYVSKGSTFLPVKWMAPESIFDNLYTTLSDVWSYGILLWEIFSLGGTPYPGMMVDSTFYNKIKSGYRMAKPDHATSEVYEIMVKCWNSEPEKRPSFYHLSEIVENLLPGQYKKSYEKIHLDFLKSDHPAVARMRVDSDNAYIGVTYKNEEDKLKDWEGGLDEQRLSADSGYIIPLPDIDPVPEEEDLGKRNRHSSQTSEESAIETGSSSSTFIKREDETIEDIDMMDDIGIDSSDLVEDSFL
pIC50: −log10 of the molar value.
Quick rule: pIC50 of at least 6 means label 1, below that means label 0.

| smiles-text | class-name |
| --- | --- |
| CC[C@]1(O)[C@H](C)O[C@H](c2ccncc2NC(=O)c2nc(-c3ccccc3)cnc2N)C[C@@H]1N | label 0 |
| C[C@@]1(O)[C@@H](N)C[C@@H](c2ccncc2NC(=O)c2nc(-c3ccccc3)cnc2N)OC12CC2 | label 1 |
| C[C@@]1(O)[C@H](N)C[C@@H](c2ccncc2NC(=O)c2nc(-c3ccccc3)cnc2N)OC12CC2 | label 1 |
| CC[C@H]1O[C@@H](c2ccncc2NC(=O)c2nc(-c3ccccc3)cnc2N)C[C@@H](N)[C@@H]1O | label 1 |
| Nc1cc(F)c(-c2c(F)cccc2F)nc1C(=O)Nc1cnccc1[C@H]1C[C@@H](N)[C@@]2(O)CCCC[C@H]2O1 | label 0 |
| CC[C@]1(O)[C@H](O)C[C@H](c2ccncc2NC(=O)c2nc(-c3c(F)cccc3F)ncc2N)O[C@@H]1C | label 0 |
| Nc1ncc(-c2ccccc2)nc1C(=O)Nc1cnccc1[C@H]1C[C@@H](O)[C@@]2(O)CCC[C@H]2O1 | label 1 |
| CC[C@H]1O[C@@H](c2ccncc2NC(=O)c2nc(-c3ccccc3)cnc2N)C[C@@H](N)[C@]1(C)O | label 1 |
| C[C@H]1O[C@@H](c2ccncc2NC(=O)c2nc(-c3ccccc3)cnc2N)C[C@@H](N)[C@]1(C)O | label 1 |
| Nc1ncc(-c2ccccc2)nc1C(=O)Nc1cnccc1[C@@H]1C[C@H](O)[C@]2(O)CCCC[C@@H]2O1 | label 0 |
| C[C@]1(O)[C@@H](N)C[C@H](c2ccncc2NC(=O)c2nc(-c3ccccc3)cnc2N)OC12CC2 | label 1 |
| CC[C@]1(O)[C@H](N)C[C@H](c2ccncc2NC(=O)c2ccc(F)c(-c3c(F)cccc3F)n2)O[C@@H]1C | label 1 |
| O=C1CC[C@H]2O[C@@H](c3ccncc3NC(=O)c3ccc(F)c(-c4c(F)cccc4F)n3)C[C@@H](O)[C@@H]2N1 | label 0 |
| Nc1ncc(-c2ccccc2)nc1C(=O)Nc1cnccc1[C@@H]1C[C@H](O)[C@]2(O)CCC[C@@H]2O1 | label 0 |
| Nc1ncc(-c2ccccc2)nc1C(=O)Nc1cnccc1[C@H]1C[C@@H](N)[C@H]2CCC[C@H]2O1 | label 1 |
| Nc1ncc(-c2ccccc2)nc1C(=O)Nc1cnccc1[C@H]1C[C@@H](N)[C@@]2(O)CCC[C@H]2O1 | label 1 |
| CC[C@@H]1O[C@H](c2ccncc2NC(=O)c2nc(-c3ccccc3)cnc2N)C[C@H](N)[C@@]1(C)O | label 0 |
| CC(C)(C)[C@H]1O[C@@H](c2ccncc2NC(=O)c2nc(-c3ccccc3)cnc2N)C[C@@H](N)[C@@H]1O | label 1 |
| Nc1ncc(-c2ccccc2)nc1C(=O)Nc1cnccc1[C@H]1C[C@@H](N)[C@@]2(O)CCCC[C@H]2O1 | label 1 |
| COc1cc(F)c(-c2nc(C(=O)Nc3cnccc3[C@H]3C[C@@H](N)[C@](C)(O)[C@@H](C)O3)ccc2F)c(F)c1 | label 1 |
| CC(C)(C)[C@H]1O[C@@H](c2ccncc2NC(=O)c2nc(-c3ccccc3)cnc2N)C[C@H](N)[C@@H]1O | label 1 |
| O=C(Nc1cnccc1[C@H]1C[C@@H](O)[C@@]2(O)CCCC[C@H]2O1)c1c[nH]cc(-c2ccccc2)c1=O | label 0 |
| N[C@@H]1C[C@H](c2ccncc2NC(=O)c2ccc(F)c(-c3c(F)cccc3F)n2)O[C@@H]2CCC[C@]12O | label 1 |
| Nc1cnc(-c2c(F)cccc2F)nc1C(=O)Nc1cnccc1[C@H]1C[C@@H](N)[C@@]2(O)CCC[C@H]2O1 | label 0 |
| Nc1ncc(-c2ccccc2)nc1C(=O)Nc1cnccc1[C@@H]1C[C@H](N)[C@]2(O)CCCC[C@@H]2O1 | label 0 |
| Nc1ncc(-c2ccccc2)nc1C(=O)Nc1cnccc1[C@@H]1C[C@H](N)[C@@H](O)[C@H](C2CC2)O1 | label 0 |

----------
molecular target: PIM2 (Homo sapiens, UniProt Q9P1W9); test: KinaseGlo Pim2 ATP depletion assay; assay type: biochemical
Sequence (Q9P1W9 whole entry): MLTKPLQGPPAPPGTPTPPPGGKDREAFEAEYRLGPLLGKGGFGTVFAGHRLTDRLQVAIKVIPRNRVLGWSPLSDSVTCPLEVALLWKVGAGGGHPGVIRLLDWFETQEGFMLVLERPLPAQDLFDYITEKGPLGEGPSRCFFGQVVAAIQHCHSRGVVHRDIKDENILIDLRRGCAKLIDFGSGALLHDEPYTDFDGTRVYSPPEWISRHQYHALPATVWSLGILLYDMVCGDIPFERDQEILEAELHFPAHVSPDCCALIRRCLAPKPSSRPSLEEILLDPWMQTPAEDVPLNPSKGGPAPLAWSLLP

| compound | IC50, nM |
| --- | --- |
| C[C@H]1O[C@@H](c2ccncc2NC(=O)c2nc(-c3ccccc3)cnc2N)C[C@@H](O)[C@]1(C)O [Example 84] | 33 |
| Nc1cc(F)c(-c2c(F)cccc2F)nc1C(=O)Nc1cnccc1C1=C[C@@H](O)[C@H](O)[C@@H](CCl)O1 [Example 30] | 1 |
| CC[C@]1(O)[C@H](O)C[C@H](c2ccncc2NC(=O)c2nc(-c3c(F)cccc3F)ncc2N)O[C@@H]1C [Example 16] | 3 |
| N#C[C@H]1O[C@@H](c2ccncc2NC(=O)c2ccnc(-c3c(F)cccc3F)n2)C[C@@H](O)[C@@H]1O [Example 149] | 458 |
| CC[C@@]1(O)[C@H](C)O[C@H](c2ccncc2NC(=O)c2ccc(F)c(-c3c(F)cccc3F)n2)C[C@@H]1O [Example 73] | 1110 |
| CC(C)NC(=O)c1ccc(F)c(-c2ccc(N)c(C(=O)Nc3cnccc3[C@H]3C[C@@H](O)[C@](C)(O)[C@@H](C)O3)n2)c1 [Example 104] | 3 |
| CC[C@H]1O[C@@H](c2ccncc2NC(=O)c2nc(-c3c(F)cccc3F)ncc2N)C[C@@H](O)[C@@H]1O [Example 18] | 5 |
| C[C@H]1C[C@@H](N)C[C@@H](c2ccncc2NC(=O)c2ccc(F)c(-c3c(F)cccc3F)n2)O1 [Example 124] | 5 |
| O=C(Nc1cnccc1[C@H]1C[C@@H](O)[C@@]2(O)CCC[C@H]2O1)c1ccnn(-c2ccccc2F)c1=O [Example 201] | 3210 |
| CC[C@H]1O[C@@H](c2ccncc2NC(=O)c2ccc(F)c(-c3c(F)ccc(C#N)c3F)n2)C[C@@H](O)[C@@H]1O [Example 2] | 13 |
| C[C@H]1O[C@@H](c2ccncc2NC(=O)c2ccc(F)c(-c3c(F)cccc3F)n2)C[C@@H](O)[C@@H]1O [Example 119] | 11 |
| C[C@H]1C[C@@H](O)C[C@@H](c2ccncc2NC(=O)c2csc(-c3c(F)cccc3F)n2)O1 (stereo in doubt) [Example 127] | 324 |
| N#CC[C@H]1O[C@@H](c2ccncc2NC(=O)c2ccc(C#N)c(-c3c(F)cccc3F)n2)C[C@@H](O)[C@@H]1O [Example 47] | 356 |
| Nc1cnc(-c2c(F)cccc2F)nc1C(=O)Nc1cnccc1[C@H]1C[C@@H](O)[C@@]2(O)CCCC[C@H]2O1 [Example 172] | 3.1 |

----------
Listed next: entries and their corresponding pIC50.
target: GSK3β (Homo sapiens); test: GSK3β ATP depletion assay; type: biochemical; details: read-out: GSK3b IC50
Sequence (P49841 whole entry, species assumed): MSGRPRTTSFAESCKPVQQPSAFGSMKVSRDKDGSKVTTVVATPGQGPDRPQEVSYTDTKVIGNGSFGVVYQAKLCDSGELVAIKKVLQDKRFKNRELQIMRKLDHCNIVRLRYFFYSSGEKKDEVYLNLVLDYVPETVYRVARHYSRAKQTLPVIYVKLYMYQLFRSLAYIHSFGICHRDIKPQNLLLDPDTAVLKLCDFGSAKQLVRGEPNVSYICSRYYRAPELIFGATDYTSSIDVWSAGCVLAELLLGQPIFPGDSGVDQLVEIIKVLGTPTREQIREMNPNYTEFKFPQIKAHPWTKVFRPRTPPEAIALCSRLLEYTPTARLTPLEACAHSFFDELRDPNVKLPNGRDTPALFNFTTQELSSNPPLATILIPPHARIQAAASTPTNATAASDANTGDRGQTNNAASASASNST
pIC50: −log10 of the molar value.
property: pIC50

| compound | property | readout-number |
| --- | --- | --- |
| O=C(Nc1cnccc1[C@H]1C[C@@H](O)[C@H](O)[C@@H](C2CC2)O1)c1ccc(F)c(-c2c(F)cccc2F)n1 [Example 211] | pIC50 | 6.20 |
| CC[C@H]1O[C@@H](c2ccncc2NC(=O)c2ccc(F)c(-c3c(F)cccc3F)n2)C[C@@H](O)[C@H]1C#N [Example 200] | pIC50 | 5.92 |
| Nc1ncc(-c2ccccc2)nc1C(=O)Nc1cnccc1[C@@H]1C[C@H](O)[C@]2(O)CCCC[C@@H]2O1 [Example 176] | pIC50 | 7.31 |
| Nc1cc(F)c(-c2ccccc2F)nc1C(=O)Nc1cnccc1C1=CC(=O)[C@H](O)[C@@H](CCl)O1 [Example 151] | pIC50 | 5.85 |
